meta.source: ChEMBL document CHEMBL3431459

biological target: Carnitine O-palmitoyltransferase 2, mitochondrial (Rattus norvegicus)
Sequence (P18886 whole entry): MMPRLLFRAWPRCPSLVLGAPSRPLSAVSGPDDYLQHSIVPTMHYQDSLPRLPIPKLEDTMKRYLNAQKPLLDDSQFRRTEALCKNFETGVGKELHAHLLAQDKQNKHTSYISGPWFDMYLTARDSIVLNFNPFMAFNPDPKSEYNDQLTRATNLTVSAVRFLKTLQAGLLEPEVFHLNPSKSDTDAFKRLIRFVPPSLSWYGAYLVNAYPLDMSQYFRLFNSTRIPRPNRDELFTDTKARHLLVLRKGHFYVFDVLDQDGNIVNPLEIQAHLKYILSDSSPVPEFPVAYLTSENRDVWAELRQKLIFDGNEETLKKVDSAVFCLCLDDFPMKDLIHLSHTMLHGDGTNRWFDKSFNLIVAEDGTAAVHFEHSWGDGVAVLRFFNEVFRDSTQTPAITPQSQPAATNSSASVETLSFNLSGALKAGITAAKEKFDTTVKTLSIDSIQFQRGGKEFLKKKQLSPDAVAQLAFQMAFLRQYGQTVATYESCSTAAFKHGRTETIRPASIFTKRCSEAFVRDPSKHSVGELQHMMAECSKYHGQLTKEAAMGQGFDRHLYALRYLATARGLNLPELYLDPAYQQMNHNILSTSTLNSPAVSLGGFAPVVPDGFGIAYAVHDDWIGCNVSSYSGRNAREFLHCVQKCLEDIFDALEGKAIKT
pIC50: −log10 of the molar value.
Reported pIC50 values for the following compounds.

- compound: "CC(=O)NCc1cccc(-c2nc([C@H]3CCCCN3C(=O)COc3ccccc3)no2)c1"
  pIC50: "< 4.00"
- compound: "O=C(COc1ccccc1)N1CCCC[C@@H]1c1noc(-c2ccc(C(F)(F)F)nc2)n1"
  pIC50: 4.15
- compound: "COc1ccc(Cl)cc1S(=O)(=O)N1COc2ccc(C(=O)Nc3ccc(C(=O)O)cc3)cc21"
  pIC50: 5.18
- compound: "O=C(COc1ccccc1)N1CCCC[C@@H]1c1noc(C2C[C@@H]3CC[C@H]2C3)n1 (some centres undefined)"
  pIC50: "< 4.00"
- compound: "COc1ccc(Cl)cc1CN1C(=O)OCc2ccc(C(=O)Nc3ccc(CC(=O)O)cc3)cc21"
  pIC50: "< 4.00"
- compound: "O=C(COc1ccccc1)N1CCCC[C@@H]1c1nc(-c2ccccc2F)n[nH]1"
  pIC50: "< 4.00"
- compound: "O=C([O-])c1cccc(-c2csc([C@H]3CCCCN3C(=O)COc3ccccc3)n2)c1.[Na+]"
  pIC50: 4.30
- compound: "Nc1cc(-c2n[nH]c([C@H]3CCCCN3C(=O)COc3ccccc3)n2)ccn1"
  pIC50: "< 4.00"
- compound: "COc1ccc(Cl)cc1S(=O)(=O)N(c1cc(C(=O)Nc2ncc(CC(=O)O)s2)cc2c1OCO2)C(C)C"
  pIC50: "< 4.00"
- compound: "O=C(COc1ccccc1)N1CCCC[C@@H]1c1csc(-c2ccc(F)cc2)n1"
  pIC50: "< 4.00"
- compound: "NC(=O)c1cccc(-c2noc([C@H]3CCCCN3C(=O)COc3ccccc3)n2)c1"
  pIC50: 4.34
- compound: "O=C1CCCN1c1cccc(-c2nc([C@H]3CCCCN3C(=O)COc3ccccc3)no2)c1"
  pIC50: "< 4.00"
- compound: "O=C(COc1ccccc1)N1CCCC[C@@H]1c1nc(-c2ccc(Cl)cc2)cs1"
  pIC50: "< 4.00"
- compound: "COc1ccc(Cl)cc1S(=O)(=O)c1nn(C)c2ccc(C(=O)Nc3ccc(C(=O)O)cc3)cc12"
  pIC50: "< 4.00"
